Where do these numbers come from? They come from ChEMBL document CHEMBL4145470.

Attribute: viability at 0.1 µM
# System: SH-SY5Y
# Assay Comment: Cytoprotective activity against H2O2-induced oxidative stress in human SH-SY5Y cells assessed as cell viability at 0.1 uM preincubated for 24 hrs followed by H2O2 addition and measured after 1 hr by MTT assay (reference value: 37.88 +/- 8.52%)
# Assay type: functional
# Test Context: read-out: Activity
Reported Endpoint: viability at 0.1 µM (%)

[[record]]
smiles_code = "c1ccc(-c2cn3ccnnc3n2)cc1"
experimental_system = "SH-SY5Y"
reported_endpoint = "viability at 0.1 µM"
obs_value = 77.3

[[record]]
smiles_code = "COc1ccccc1-c1cn2ccnnc2n1"
experimental_system = "SH-SY5Y"
reported_endpoint = "viability at 0.1 µM"
obs_value = 62.7

[[record]]
smiles_code = "COc1ccc(-c2nc3nnccn3c2-c2ccc(OC)cc2)cc1"
experimental_system = "SH-SY5Y"
reported_endpoint = "viability at 0.1 µM"
obs_value = 49.6

[[record]]
smiles_code = "COc1ccc(-c2nc3nnccn3c2-c2ccc(C)cc2)cc1"
experimental_system = "SH-SY5Y"
reported_endpoint = "viability at 0.1 µM"
obs_value = 55.3

[[record]]
smiles_code = "COc1ccc(-c2nc3nnccn3c2-c2ccccc2C)cc1"
experimental_system = "SH-SY5Y"
reported_endpoint = "viability at 0.1 µM"
obs_value = 60.7

[[record]]
smiles_code = "COc1ccc(-c2nc3nnccn3c2-c2ccccc2)cc1"
experimental_system = "SH-SY5Y"
reported_endpoint = "viability at 0.1 µM"
obs_value = 72.9

[[record]]
smiles_code = "COc1ccc(-c2nc3nnccn3c2-c2ccncc2)cc1"
experimental_system = "SH-SY5Y"
reported_endpoint = "viability at 0.1 µM"
obs_value = 64.1

[[record]]
smiles_code = "COc1ccc(-c2nc3nnccn3c2-c2ccc(OC(F)(F)F)cc2)cc1"
experimental_system = "SH-SY5Y"
reported_endpoint = "viability at 0.1 µM"
obs_value = 78.6

[[record]]
smiles_code = "N#Cc1ccc(-c2cn3ccnnc3n2)cc1"
experimental_system = "SH-SY5Y"
reported_endpoint = "viability at 0.1 µM"
obs_value = 67.1

[[record]]
smiles_code = "FC(F)(F)c1ccc(-c2cn3ccnnc3n2)cc1"
experimental_system = "SH-SY5Y"
reported_endpoint = "viability at 0.1 µM"
obs_value = 85.1

[[record]]
smiles_code = "COc1ccc(-c2nc3nnccn3c2-c2cccs2)cc1"
experimental_system = "SH-SY5Y"
reported_endpoint = "viability at 0.1 µM"
obs_value = 44.6

[[record]]
smiles_code = "COc1ccc(-c2nc3nnccn3c2-c2ccc([N+](=O)[O-])cc2)cc1"
experimental_system = "SH-SY5Y"
reported_endpoint = "viability at 0.1 µM"
obs_value = 81.2


* * *

# System: SH-SY5Y
# Assay Comment: Cytoprotective activity against H2O2-induced oxidative stress in human SH-SY5Y cells assessed as cell viability at 0.1 uM preincubated for 24 hrs followed by H2O2 addition and measured after 1 hr by MTT assay (reference value: 37.88 +/- 8.52%)
# Type: functional
# Test Context: read-out: Activity
Reported Endpoint: viability at 0.1 µM (%)

[[record]]
smiles_code = "COc1ccc(-c2nc3nnccn3c2-c2cccc(C#N)c2)cc1"
obs_value = 66.6

[[record]]
smiles_code = "COc1ccc(-c2cn3ccnnc3n2)cc1"
obs_value = 73.9

[[record]]
smiles_code = "O=[N+]([O-])c1cccc(-c2cn3ccnnc3n2)c1"
obs_value = 61.5

[[record]]
smiles_code = "COc1ccc(-c2nc3nnccn3c2-c2cccc(F)c2)cc1"
obs_value = 54.6

[[record]]
smiles_code = "COc1ccc(-c2nc3nnccn3c2-c2ccc(C)c([N+](=O)[O-])c2)cc1"
obs_value = 49.5

[[record]]
smiles_code = "COc1cccc(-c2cn3ccnnc3n2)c1"
obs_value = 73.8

